- Test system: MDA-MB-435 melanoma
- test.name: NCI-60 one-dose screen, 48 h (100 = growth as untreated, 0 = no growth, -100 = all killed)
- run.conditions: 10 µM
This is part of a sample that, as a whole, favours compounds with a hit. Of some 83,000 tested, about 20% had one in any assay.
recorded.endpoint: growth (%)
Your answer is read as %, so omit the unit and give the number.

Please review the entries below; each comes with its answer.
* C[C@@H]1C(=O)N(C[C@H](Cc2ccccc2)NC(=O)OCc2ccccc2)[C@]1(Cc1ccccc1)C(=O)OCc1ccccc1 | 52
* COc1cccc(-c2nnc(COc3ccc(-c4nc5ccccc5[nH]4)cc3OC)o2)c1 | 94.9
* c1ccc(COCC[P+](c2ccccc2)(c2ccccc2)c2ccccc2)cc1 | -0.102
* S=C(Cc1ccc(-c2ccccc2)cc1)N1CCOCC1 | 98.6

Could you now look at the following molecule, please?
## Task For CCCCN(CCCC)c1ccc(C(=NC(C)CCCN(CC)CC)c2ccc(N(C)C)cc2)cc1 (stereo unspecified) , write its growth.
## Result -87.5
